Species: Felis catus
Experiment: The maximal difference in Intraocular Pressure (IOP) between treated and control eyes. The effect was tested in cats at a dose of 10.0 (ug/eye)
Type: functional
readout name: Imax (mmHg)
Value expressed in mmHg; do not type the unit.

**Q:** Supply measured Imax of `CC(C)OC(=O)CCC/C=C\C[C@@H]1[C@@H](/C=C/[C@H](O)CCc2ccc(-c3ccccc3)cc2)[C@H](O)C[C@@H]1O` in your reply.
**A:** -0.3

Next:
**Q:** Supply measured Imax of `Cc1cccc(CC[C@H](O)/C=C/[C@@H]2[C@@H](C/C=C\CCCC(=O)OC(C)C)[C@@H](O)C[C@H]2O)c1` in your reply.
**A:** 2.3

---

Species on record: Felis catus
Assay: The mean ocular irritation in the treated eyes. An arbitrary scale of from 0 to 3 was used, 0 indicates absence of irritation and 3 complete closure of the lids. The effect was tested in cats at a dose of 3.0 (ug/eye)
Format: functional
Listed here are compounds together with their documented Irritation.
Value expressed in arbitrary units; do not type the unit.

**Q:** Supply measured Irritation of `CC(C)OC(=O)CCC/C=C\C[C@@H]1[C@@H](/C=C/[C@H](O)CCc2ccc(-c3cccs3)cc2)[C@H](O)C[C@@H]1O` in your reply.
**A:** 0.2

**Q:** Supply measured Irritation of `CC(C)OC(=O)CCC/C=C\C[C@@H]1[C@@H](/C=C/[C@@H](O)CCc2ccc(-c3ccco3)cc2)[C@H](O)C[C@@H]1O` in your reply.
**A:** 0.6

**Q:** Supply measured Irritation of `CC(C)OC(=O)CCC/C=C\C[C@@H]1[C@@H](/C=C/[C@@H](O)CCc2cccc(-c3cccs3)c2)[C@H](O)C[C@@H]1O` in your reply.
**A:** 0.3

---

Organism: Felis catus
Experiment: The mean ocular irritation in the treated eyes. An arbitrary scale of from 0 to 3 was used, 0 indicates absence of irritation and 3 complete closure of the lids. The effect was tested in cats at a dose of 10.0 (ug/eye)
Format: functional
Listed here are compounds together with their documented Irritation.
Value expressed in arbitrary units; do not type the unit.

**Q:** Supply measured Irritation of `CC(C)OC(=O)CCC/C=C\C[C@@H]1[C@@H](/C=C/[C@@H](O)CCc2ccc(Br)cc2)[C@H](O)C[C@@H]1O` in your reply.
**A:** 0.3

**Q:** Supply measured Irritation of `Cc1cccc(CC[C@H](O)/C=C/[C@@H]2[C@@H](C/C=C\CCCC(=O)OC(C)C)[C@@H](O)C[C@H]2O)c1` in your reply.
**A:** 0

**Q:** Supply measured Irritation of `CC(C)OC(=O)CCC/C=C\C[C@@H]1[C@@H](/C=C/[C@@H](O)CCc2cccc(Br)c2)[C@H](O)C[C@@H]1O` in your reply.
**A:** 0.2

**Q:** Supply measured Irritation of `CC(C)OC(=O)CCC/C=C\C[C@@H]1[C@@H](/C=C/[C@H](O)CCc2ccc(Br)cc2)[C@H](O)C[C@@H]1O` in your reply.
**A:** 0

---

Species: Felis catus
Assay: The mean area between curves for Intraocular Pressure (IOP) measured in treated and control eyes. The effect was tested in cats at a dose of 1.0 (ug/eye)
Assay type: functional
Listed here are compounds together with their documented I ABC.

Known I ABC results, listed for orientation:
**Q:** Supply measured I ABC of `CC(C)OC(=O)CCC/C=C\C[C@@H]1[C@@H](/C=C/[C@@H](O)CCc2cccc(-c3ccsc3)c2)[C@H](O)C[C@@H]1O` in your reply.
**A:** -21

**Q:** Supply measured I ABC of `CC(C)OC(=O)CCC/C=C\C[C@@H]1[C@@H](/C=C/[C@H](O)CCc2ccc(Br)cc2)[C@H](O)C[C@@H]1O` in your reply.
**A:** -14

**Q:** Supply measured I ABC of `CC(C)OC(=O)CCC/C=C\C[C@@H]1[C@@H](/C=C/[C@@H](O)CCc2ccc(-c3ccsc3)cc2)[C@H](O)C[C@@H]1O` in your reply.
**A:** -63.2

// next item, I ABC requested
**Q:** Supply measured I ABC of `CC(C)OC(=O)CCC/C=C\C[C@@H]1[C@@H](/C=C/[C@@H](O)CCc2ccc(-c3cccs3)cc2)[C@H](O)C[C@@H]1O` in your reply.
**A:** -84

---

Organism: Felis catus
Assay: Concentration giving half-maximal contraction of the cat iris sphincter muscle was determined in vitro
Assay type: functional
Conditions: Felis catus, Sphincter muscle
Listed here are compounds together with their documented log10 EC50.
Give log10 of EC50, with EC50 taken in nM.

**Q:** Supply measured log10 EC50 of O=C(O)CCC/C=C\C[C@@H]1[C@@H](/C=C/C(O)CCc2ccccc2)[C@H](O)C[C@@H]1O (stereo partly specified) in your reply.
**A:** -0.15

**Q:** Supply measured log10 EC50 of `CCCCC[C@H](O)/C=C/[C@@H]1[C@@H](C/C=C\CCCC(=O)O)[C@@H](O)C[C@H]1O` in your reply.
**A:** 0.83

**Q:** Supply measured log10 EC50 of `O=C(O)CCC/C=C\C[C@@H]1[C@@H](/C=C/[C@@H](O)CCc2ccc(Br)cc2)[C@H](O)C[C@@H]1O` in your reply.
**A:** 1.54

**Q:** Supply measured log10 EC50 of `O=C(O)CCC/C=C\C[C@@H]1[C@@H](/C=C/[C@H](O)CCc2ccc(Br)cc2)[C@H](O)C[C@@H]1O` in your reply.
**A:** 3.32

**Q:** Supply measured log10 EC50 of Cc1cccc(CCC(O)/C=C/[C@@H]2[C@@H](C/C=C\CCCC(=O)O)[C@@H](O)C[C@H]2O)c1 (stereo partly specified) in your reply.
**A:** 0.63

Next:
**Q:** Supply measured log10 EC50 of Cc1ccc(CCC(O)/C=C/[C@@H]2[C@@H](C/C=C\CCCC(=O)O)[C@@H](O)C[C@H]2O)cc1 (stereo partly specified) in your reply.
**A:** 1.60

---

Species: Felis catus
Assay: The mean area between curves for Intraocular Pressure (IOP) measured in treated and control eyes. The effect was tested in cats at a dose of 1.0 (ug/eye)
Format: functional
Lab note - cut at -4 for I ABC: Criterion met if strictly below, Criterion not met if not.

**Q:** Given the entry `CC(C)OC(=O)CCC/C=C\C[C@@H]1[C@@H](/C=C/[C@H](O)CCc2cccc(-c3ccccc3)c2)[C@H](O)C[C@@H]1O` , would its reported I ABC be below -4?
**A:** Criterion met

**Q:** Given the entry `CC(=O)c1ccc(CC[C@@H](O)/C=C/[C@@H]2[C@@H](C/C=C\CCCC(=O)OC(C)C)[C@@H](O)C[C@H]2O)cc1` , would its reported I ABC be below -4?
**A:** Criterion met

**Q:** Given the entry `CC(C)OC(=O)CCC/C=C\C[C@@H]1[C@@H](/C=C/[C@H](O)CCc2ccc(-c3ccccc3)cc2)[C@H](O)C[C@@H]1O` , would its reported I ABC be below -4?
**A:** Criterion met

**Q:** Given the entry `CC(C)OC(=O)CCC/C=C\C[C@@H]1[C@@H](/C=C/[C@@H](O)CCc2cccc(-c3cccs3)c2)[C@H](O)C[C@@H]1O` , would its reported I ABC be below -4?
**A:** Criterion met

**Q:** Given the entry `CC(=O)c1ccc(CC[C@H](O)/C=C/[C@@H]2[C@@H](C/C=C\CCCC(=O)OC(C)C)[C@@H](O)C[C@H]2O)cc1` , would its reported I ABC be below -4?
**A:** Criterion met

**Q:** Given the entry `CC(C)OC(=O)CCC/C=C\C[C@@H]1[C@@H](/C=C/[C@@H](O)CCc2cccc(-c3ccccc3)c2)[C@H](O)C[C@@H]1O` , would its reported I ABC be below -4?
**A:** Criterion met

**Q:** Given the entry `CC(C)OC(=O)CCC/C=C\C[C@@H]1[C@@H](/C=C/[C@H](O)CCc2cccc(Br)c2)[C@H](O)C[C@@H]1O` , would its reported I ABC be below -4?
**A:** Criterion not met

**Q:** Given the entry `Cc1ccc(CC[C@H](O)/C=C/[C@@H]2[C@@H](C/C=C\CCCC(=O)OC(C)C)[C@@H](O)C[C@H]2O)cc1` , would its reported I ABC be below -4?
**A:** Criterion met

**Q:** Given the entry `CC(C)OC(=O)CCC/C=C\C[C@@H]1[C@@H](/C=C/[C@H](O)CCc2ccc(-c3ccsc3)cc2)[C@H](O)C[C@@H]1O` , would its reported I ABC be below -4?
**A:** Criterion not met

---

Organism: Felis catus
Assay: The mean ocular irritation in the treated eyes. An arbitrary scale of from 0 to 3 was used, 0 indicates absence of irritation and 3 complete closure of the lids. The effect was tested in cats at a dose of 3.0 (ug/eye)
Assay type: functional
Listed here are compounds together with their documented Irritation.
Value expressed in arbitrary units; do not type the unit.

**Q:** Supply measured Irritation of `CC(C)OC(=O)CCC/C=C\C[C@@H]1[C@@H](/C=C/[C@H](O)CCc2cccc(-c3ccco3)c2)[C@H](O)C[C@@H]1O` in your reply.
**A:** 0.4

**Q:** Supply measured Irritation of `CC(C)OC(=O)CCC/C=C\C[C@@H]1[C@@H](/C=C/[C@@H](O)CCc2cccc(Br)c2)[C@H](O)C[C@@H]1O` in your reply.
**A:** 0.3

**Q:** Supply measured Irritation of `CC(C)OC(=O)CCC/C=C\C[C@@H]1[C@@H](/C=C/[C@@H](O)CCc2ccc(-c3ccccc3)cc2)[C@H](O)C[C@@H]1O` in your reply.
**A:** 1.6

**Q:** Supply measured Irritation of `CC(C)OC(=O)CCC/C=C\C[C@@H]1[C@@H](/C=C/[C@H](O)CCc2cccc(Br)c2)[C@H](O)C[C@@H]1O` in your reply.
**A:** 0

**Q:** Supply measured Irritation of `CC(C)OC(=O)CCC/C=C\C[C@@H]1[C@@H](/C=C/[C@H](O)CCc2ccc(Br)cc2)[C@H](O)C[C@@H]1O` in your reply.
**A:** 0.2

**Q:** Supply measured Irritation of `CC(C)OC(=O)CCC/C=C\C[C@@H]1[C@@H](/C=C/[C@H](O)CCc2ccc(-c3ccco3)cc2)[C@H](O)C[C@@H]1O` in your reply.
**A:** 0.2

**Q:** Supply measured Irritation of `Cc1ccc(CC[C@@H](O)/C=C/[C@@H]2[C@@H](C/C=C\CCCC(=O)OC(C)C)[C@@H](O)C[C@H]2O)cc1` in your reply.
**A:** 0

**Q:** Supply measured Irritation of `Cc1ccc(CC[C@H](O)/C=C/[C@@H]2[C@@H](C/C=C\CCCC(=O)OC(C)C)[C@@H](O)C[C@H]2O)cc1` in your reply.
**A:** 0

**Q:** Supply measured Irritation of `CC(=O)c1cccc(CC[C@@H](O)/C=C/[C@@H]2[C@@H](C/C=C\CCCC(=O)OC(C)C)[C@@H](O)C[C@H]2O)c1` in your reply.
**A:** 0.1

**Q:** Supply measured Irritation of `CC(C)OC(=O)CCC/C=C\C[C@@H]1[C@@H](/C=C/[C@H](O)CCc2cccc(-c3ccoc3)c2)[C@H](O)C[C@@H]1O` in your reply.
**A:** 0

Next:
**Q:** Supply measured Irritation of `CC(C)OC(=O)CCC/C=C\C[C@@H]1[C@@H](/C=C/[C@@H](O)CCc2cccc(-c3ccoc3)c2)[C@H](O)C[C@@H]1O` in your reply.
**A:** 0.5

**Q:** Supply measured Irritation of `CC(C)OC(=O)CCC/C=C\C[C@@H]1[C@@H](/C=C/[C@@H](O)CCc2ccc(-c3ccsc3)cc2)[C@H](O)C[C@@H]1O` in your reply.
**A:** 0.6

**Q:** Supply measured Irritation of `CC(C)OC(=O)CCC/C=C\C[C@@H]1[C@@H](/C=C/[C@@H](O)CCc2cccc(-c3ccco3)c2)[C@H](O)C[C@@H]1O` in your reply.
**A:** 0.1

**Q:** Supply measured Irritation of `Cc1cccc(CC[C@H](O)/C=C/[C@@H]2[C@@H](C/C=C\CCCC(=O)OC(C)C)[C@@H](O)C[C@H]2O)c1` in your reply.
**A:** 0.1

Data provenance is ChEMBL document CHEMBL1128437.
